Each record here notes measured logD at 24 h.
# assay_summary: Octanol-water apparent partition coefficient, log D of the compound at pH 7.4 after 24 hrs by shake flask method
# Type: physicochemical
# output: bare number, no unit

chemical_smiles=Cc1cc(S(C)(=O)=O)c(CNc2ccc3c(c2)c(-c2ccc(C(=O)N[C@H]4CC[C@H](O)CC4)cc2)nn3C)cc1F measurement=1.41

Note: attention shifts to another entry.
logD at 24 h for Cn1nc(-c2ccc(C(=O)N[C@H]3CC[C@H](O)CC3)cc2)c2cc(NCc3cc(F)c(F)cc3S(C)(=O)=O)ccc21 is 1.37

FYI, the data here is from ChEMBL document CHEMBL4177597.
